Catalogue of binders with associated Dissociation amount (RU)
Tested system: T1, human FSTL1 (construct not stated) (human, UniProt Q12841 21-308)
T1 construct: also called human FSTL1 antigen; FSTL1 (R&D Systems, Inc. Cat#1694-FN-050)
T1 sequence: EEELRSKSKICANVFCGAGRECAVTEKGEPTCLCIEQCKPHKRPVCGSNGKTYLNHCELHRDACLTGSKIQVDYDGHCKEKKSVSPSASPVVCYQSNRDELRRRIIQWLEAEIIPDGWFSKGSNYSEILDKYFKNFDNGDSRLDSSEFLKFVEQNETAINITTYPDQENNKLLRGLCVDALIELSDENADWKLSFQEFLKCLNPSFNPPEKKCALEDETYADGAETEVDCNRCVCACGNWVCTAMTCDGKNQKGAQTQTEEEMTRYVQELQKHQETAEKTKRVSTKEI
Assay overview: SPR (Biacore T-200), captured antibody, human FSTL1 10 µg/ml; note: time not given here
Output spec: scalar in RU, unitless text.

- Binder: "anti-FSTL1 antibody clone #13 (chicken-mouse chimeric antibody) (antibody, mouse IgG1, kappa, V domains shown) VH: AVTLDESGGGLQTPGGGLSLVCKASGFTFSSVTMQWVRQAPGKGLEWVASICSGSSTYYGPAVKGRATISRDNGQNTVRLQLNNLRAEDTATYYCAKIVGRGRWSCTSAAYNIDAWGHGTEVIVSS VL: ASTQPSSVSANPGETVKITCSGGGNNYGWYQQKSPGSAPVTVIYNNNNRPSNIPSRFSGSKSGSTNTLTITGVQAEDEAVYYCGSYDSSSDSGIFGAGTTLTVLG"
  Dissociation amount (RU): 0.2
- Binder: "anti-FSTL1 antibody clone #5-3 (chicken-mouse chimeric antibody) (antibody, mouse IgG1, kappa, V domains shown) VH: AVTLDESGGGLQTPGGALSLVCKGSGFSFSSFNMFWVRQAPGKGLEWVAGIGKDGVPKYGAAVDGRATISKDNGQSTMRLQLNNLRAEDTGTYFCAKAAGGCSYDWCGIYAGDIDTWGHGTEVIVSS VL: ASTQPSSVSANPGETVKITCSGGSGYYYGWYQQKSPGSVPVTVIYNNNNRPSDIPSRFSGSKSGSTGTLTITGVRAEDEAVYYCGGYDNSGTGIFGAGTTLTVLG"
  Dissociation amount (RU): 8.8
- Binder: "anti-FSTL1 antibody clone #8-4 (chicken-mouse chimeric antibody) (antibody, mouse IgG1, kappa, V domains shown) VH: AVTLDESGGGLQTPGGGLSLVCKGSGFTLSSFNMFWVRQAPGKGLEWVAGVGKDGGTAYGAAVDGRATISRDSGQSTVRLQLNNLRAEDTGTYFCAKAAGGCSYSWCGAYVGDLDAWGHGTEVIVSS VL: ASSQPSSVSANPGETVKITCSGGSGYYYGWYQQKSPGSAPVTVIYNNDNKPSDIPSRFSGSKSGSTGTLTITGVQVEDEAVYFCGGYDNSGTGIFGAGTTLTVLG"
  Dissociation amount (RU): 6.2

# input binder: anti-FSTL1 antibody clone #5-10 (chicken-mouse chimeric antibody) (antibody, mouse IgG1, V domains shown) VH: AVTLDESGGGLQTPGGGLSLVCKGSGFTLSSFNMFWVRQAPGKGLEWVAGVGKDGGTTYGAAVDGRATISRDSGQSTVRLQLNDLRAEDTGTYFCAKAAGGCSYSWCGAYVGDLDAWGHGTEVIVSS VL: ASTQPSSVSANPGETVKITCSGGGSYVGSYYYGWYQQKSPGSAPVTVIYNNNQRPSDIPSRFSGSKSGSTATLTITGVQAEDEAVYFCGGYDSSAGGIFGAGTTLTVLG ; wanted: its Dissociation amount (RU)
12.1

# input binder: anti-FSTL1 antibody clone #7-34 (chicken-mouse chimeric antibody) (antibody, mouse IgG1, kappa, V domains shown) VH: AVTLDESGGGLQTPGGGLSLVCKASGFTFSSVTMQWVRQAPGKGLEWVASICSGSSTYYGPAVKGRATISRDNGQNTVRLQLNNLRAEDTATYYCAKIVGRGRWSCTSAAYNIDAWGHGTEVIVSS VL: ASTQPSSVSANPGETVKITCSGGGNNYGWYQQKSPGSAPVTVIYYNNNRPSNIPSRFSGSTSGSTSTLTITGVQAEDEAVYYCGSYEGSTDSGIFGAGTTLTVLG ; wanted: its Dissociation amount (RU)
2.5

# input binder: anti-FSTL1 antibody clone #8-7 (chicken-mouse chimeric antibody) (antibody, mouse IgG1, kappa, V domains shown) VH: AVTLDESGGGLQTPGGGLSLVCKGSGFTFSSFNMFWVRQAPGKGLEWVAGIGKDGVPKYGAAVDGRATISKDNGQSTLRLQLNNLRAEDTGTYFCAKAAGGCSYDWCGIYAGDIDTWGHGTEVIVSS VL: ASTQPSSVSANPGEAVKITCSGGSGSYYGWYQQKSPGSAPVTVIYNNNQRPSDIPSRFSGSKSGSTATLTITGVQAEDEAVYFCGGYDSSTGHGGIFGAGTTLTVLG ; wanted: its Dissociation amount (RU)
11.8

# input binder: anti-FSTL1 antibody clone #6-55 (chicken-mouse chimeric antibody) (antibody, mouse IgG1, kappa, V domains shown, also called Anti-FSTL1 mAb (#6-55)) VH: AVTLDESGGGLQTPGGALSLVCKGSGFTFTSVTMQWVRQAPGKGLEWVASVCSGSSTYYAPAVKGRATISRDNGQSTVRLQLSNLRPEDTGTYYCAKIAGRARWSCTSAAYNIDAWGHGTEVIVSS VL: ASTQPSSVSAIPGETVKITCSGGGNNYGWYQQRSPGSAPVTVIYYNDNRPSNIPSRFSGSTSGSTSTLTITGVQADDEAIYYCGSWDSNTDSGIFGAGTTLTVLG ; wanted: its Dissociation amount (RU)
1.5
